Tested on: NOMO1
Test: cell viability relative to DMSO control; higher = less cytotoxic
Settings: RPMI 5 mM glucose + 10% dialyzed FBS; 48 h; 0.0211 µM
measuredParameter: cell viability (%)

> print(dat)
                                 testsmiles  reported
1        O=C(c1cncc(Br)c1)N1CCC(N2CCCC2)CC1       106
2  COc1cc(C(=O)NC2CCN(C)CC2)ccc1Nc1ncc2c(n1)N(C1CCCC1)CCC(=O)N2C(C)C       110
3  CN1C(=O)/C(=C(NC2=CC=C(I)C=C2F)\C3=C1\N=C/N(C[C@@H](O)CO)C3=O)F        46
4  CC(=O)N(C)C1(c2ccccc2)CCN(CCC[C@]2(c3ccc(Cl)c(Cl)c3)CCCN(C(=O)c3ccccc3)C2)CC1       115
